Biological target: T1, cynomolgus monkey transferrin receptor 1 (cTfR1) (cynomolgus monkey (Macaca fascicularis), UniProt Q5RDH6 89-760 (Pongo abelii entry), limits assumed)
T1 construct: Recombinant cynomolgus TfR1; also called cyTfR1; cyno TfR1
T1 chain: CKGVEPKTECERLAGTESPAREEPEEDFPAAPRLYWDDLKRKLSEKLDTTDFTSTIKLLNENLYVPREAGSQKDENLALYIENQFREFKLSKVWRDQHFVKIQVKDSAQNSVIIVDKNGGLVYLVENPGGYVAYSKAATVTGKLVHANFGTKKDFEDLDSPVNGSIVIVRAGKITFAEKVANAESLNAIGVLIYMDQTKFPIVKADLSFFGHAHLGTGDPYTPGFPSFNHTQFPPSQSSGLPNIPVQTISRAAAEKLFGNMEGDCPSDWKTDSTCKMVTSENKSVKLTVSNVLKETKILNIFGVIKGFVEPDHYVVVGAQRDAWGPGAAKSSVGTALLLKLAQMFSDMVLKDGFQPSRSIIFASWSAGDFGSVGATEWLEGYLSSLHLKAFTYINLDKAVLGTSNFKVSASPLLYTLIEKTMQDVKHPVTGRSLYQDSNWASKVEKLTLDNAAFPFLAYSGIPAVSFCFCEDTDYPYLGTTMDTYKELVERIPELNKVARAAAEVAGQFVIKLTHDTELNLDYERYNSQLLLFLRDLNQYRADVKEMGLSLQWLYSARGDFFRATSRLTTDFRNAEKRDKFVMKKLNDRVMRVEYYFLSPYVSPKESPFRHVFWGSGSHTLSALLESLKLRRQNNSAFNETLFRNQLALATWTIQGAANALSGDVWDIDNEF
Assay: ELISA on plate-coated cyno TfR1, unconjugated Fab
Listing of recorded Fab binding affinity ELISA by entry.
Record the value in nM, omitting the unit from your answer.

Return reported Fab binding affinity ELISA; argument: humanized anti-TfR Fab 3A4 VH3 (N54T)/Vk4 (Fab, V domains shown) VH: EVQLVQSGSELKKPGASVKVSCTASGFNIKDDYMYWVRQPPGKGLEWIGWIDPETGDTEYASKFQDRVTVTADTSTNTAYMELSSLRSEDTAVYYCTLWLRRGLDYWGQGTLVTVSS VL: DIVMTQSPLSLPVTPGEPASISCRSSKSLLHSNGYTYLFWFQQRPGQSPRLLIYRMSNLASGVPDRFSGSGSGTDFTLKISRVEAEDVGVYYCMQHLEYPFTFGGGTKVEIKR 156

Return reported Fab binding affinity ELISA; argument: humanized anti-TfR Fab 3M12 VH4/Vk3 (Fab, V domains shown) VH: QVQLQESGPGLVKPSQTLSLTCTVTGYSITSGYYWNWIRQPPGKGLEWIGYITFDGANNYNPSLKNRVSISRDTSKNQFSLKLSSVTAEDTATYYCTRSSYDYDVLDYWGQGTTVTVSS VL: DIQMTQSPSSLSASVGDRVTITCRASQDISNFLNWYQQKPGQPVKLLIYYTSRLHSGVPSRFSGSGSGTDFTLTISSLQPEDFATYYCQQGHTLPYTFGQGTKLEIKR 2.2

Return reported Fab binding affinity ELISA; argument: humanized anti-TfR Fab 5H12 VH5 (C33Y)/Vk4 (Fab, V domains shown, also called 5H12 (VH4-C33Y/Vk4)) VH: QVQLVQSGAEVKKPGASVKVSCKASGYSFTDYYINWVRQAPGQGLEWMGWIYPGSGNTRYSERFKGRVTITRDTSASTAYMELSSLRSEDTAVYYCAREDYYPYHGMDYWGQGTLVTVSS VL: DIVMTQSPDSLAVSLGERATINCRASESVDGYDNSFMHWYQQKPGQPPKLLIFRASNLESGVPDRFSGSGSGTDFTLTISSLQAEDVAVYYCQQSSEDPWTFGQGTKLEIKR 3.3

Data credit: patent US20240016952A1
